- experiment: Inhibition of bovine liver beta-galactosidase using p-nitrophenyl glycoside as substrate by spectrometric method
- Parameters: species or system Bos taurus
observation.type: pIC50
One number for each entry, as −log10 of the molar value.

-- ask Looking for the measured pIC50 of `OC[C@@H]1[C@@H](O)[C@H](O)[C@H]2[C@H](O)C(F)(F)CN21` , can you help?
-- reply 3.41

---

- Organism: Bos taurus
- experiment: Inhibition of bovine liver beta-glucosidase using p-nitrophenyl glycoside as substrate at 1000 uM by spectrometric method relative to control
- Type: tissue-based
Classify by measured inhibition: satisfied if it is equal to or exceeds 30%, not satisfied if it is smaller.

smiles.entry: OC[C@@H]1[C@@H](O)[C@H](O)[C@H]2[C@@H](O)[C@H](F)CN21
assigned.label: satisfied

smiles.entry: OC[C@@H]1[C@@H](O)[C@H](O)[C@H]2C[C@@H](F)CN12
assigned.label: not satisfied

smiles.entry: OC[C@@H]1[C@@H](O)[C@H](O)[C@H]2[C@@H](O)[C@@H](F)CN21
assigned.label: satisfied

-- ask Form field: inhibition at least 30%? Entry: `OC[C@@H]1[C@@H](O)[C@H](O)[C@H]2C[C@H](O)CN12`
-- reply not satisfied

-- ask Form field: inhibition at least 30%? Entry: `OC[C@@H]1[C@@H](O)[C@H](O)[C@H]2[C@H](O)[C@H](F)CN21`
-- reply satisfied

-- ask Form field: inhibition at least 30%? Entry: `OC[C@@H]1[C@@H](O)[C@H](O)[C@H]2[C@H](O)[C@@H](F)CN21`
-- reply not satisfied

-- ask Form field: inhibition at least 30%? Entry: `OC[C@@H]1[C@@H](O)[C@H](O)[C@H]2C[C@@H](O)CN12`
-- reply not satisfied

-- ask Form field: inhibition at least 30%? Entry: `OC[C@@H]1[C@@H](O)[C@H](O)[C@H]2[C@@H](O)C(F)(F)CN21`
-- reply not satisfied

-- ask Form field: inhibition at least 30%? Entry: `OC[C@@H]1[C@@H](O)[C@H](O)[C@H]2CC(F)(F)CN12`
-- reply not satisfied

-- ask Form field: inhibition at least 30%? Entry: `OC[C@@H]1[C@@H](O)[C@H](O)[C@H]2C[C@H](F)CN12`
-- reply not satisfied

---

- experiment: Inhibition of bovine liver beta-glucosidase using p-nitrophenyl glycoside as substrate by spectrometric method
- Assay type: tissue-based, Bos taurus
observation.type: pIC50
One number for each entry, as −log10 of the molar value.

-- ask Looking for the measured pIC50 of `OC[C@@H]1[C@@H](O)[C@H](O)[C@H]2[C@H](O)C(F)(F)CN21` , can you help?
-- reply 3.13

---

- System: Helix pomatia
- experiment: Inhibition of snail beta-mannosidase using p-nitrophenyl glycoside as substrate at 1000 uM by spectrometric method relative to control
Classify by measured inhibition: satisfied if it is equal to or exceeds 4%, not satisfied if it is smaller.

A selection of reference data follows.
smiles.entry: OC[C@@H]1[C@@H](O)[C@H](O)[C@H]2C[C@@H](O)CN12
assigned.label: not satisfied
//
smiles.entry: OC[C@@H]1[C@@H](O)[C@H](O)[C@H]2[C@@H](O)[C@H](F)CN21
assigned.label: not satisfied
//
smiles.entry: OC[C@@H]1[C@@H](O)[C@H](O)[C@H]2[C@@H](O)C(F)(F)CN21
assigned.label: not satisfied
//
smiles.entry: OC[C@@H]1[C@@H](O)[C@H](O)[C@H]2C[C@H](O)CN12
assigned.label: not satisfied
//
smiles.entry: OC[C@@H]1[C@@H](O)[C@H](O)[C@H]2[C@H](O)[C@H](F)CN21
assigned.label: satisfied
//
smiles.entry: OC[C@@H]1[C@@H](O)[C@H](O)[C@H]2[C@H](O)C(F)(F)CN21
assigned.label: not satisfied
//
smiles.entry: OC[C@@H]1[C@@H](O)[C@H](O)[C@H]2C[C@@H](F)CN12
assigned.label: satisfied
//
smiles.entry: OC[C@@H]1[C@@H](O)[C@H](O)[C@H]2CC(F)(F)CN12
assigned.label: not satisfied

-- ask Form field: inhibition at least 4%? Entry: `OC[C@@H]1[C@@H](O)[C@H](O)[C@H]2[C@@H](O)[C@@H](F)CN21`
-- reply not satisfied

-- ask Form field: inhibition at least 4%? Entry: `OC[C@@H]1[C@@H](O)[C@H](O)[C@H]2C[C@H](F)CN12`
-- reply not satisfied

-- ask Form field: inhibition at least 4%? Entry: `OC[C@@H]1[C@@H](O)[C@H](O)[C@H]2[C@H](O)[C@@H](F)CN21`
-- reply satisfied

---

- experiment: Inhibition of Aspergillus niger amyloglucosidase
observation.type: IC50 (µM)
Give bare numbers, in µM.

In the examples that follow, each entry is paired with its recorded IC50.
smiles.entry: OC[C@@H]1[C@@H](O)[C@H](O)[C@H]2[C@@H](F)CCN21
IC50, µM: 81

smiles.entry: OC[C@@H]1[C@@H](O)[C@H](O)[C@H]2[C@@H](F)[C@H](O)CN21
IC50, µM: 167

smiles.entry: OC[C@@H]1[C@@H](O)[C@H](O)[C@H]2[C@@H](F)[C@@H](O)CN21
IC50, µM: 152

smiles.entry: OC[C@@H]1[C@@H](O)[C@H](O)[C@H]2[C@H](F)[C@H](O)CN21
IC50, µM: 4.5

Here is the next item to consider.
-- ask Looking for the measured IC50 of `OC[C@@H]1[C@@H](O)[C@H](O)[C@@H]2N1C[C@@H](O)C2(F)F` , can you help?
-- reply 60

---

Exercise: for every item that follows, state its recorded inhibition.
- Species on record: Sus scrofa
- experiment: Inhibition of porcine kidney alpha/alpha-trehalase using p-nitrophenyl glycoside as substrate at 1000 uM by spectrometric method relative to control
- Assay type: tissue-based
Returns: string containing the number followed by the unit.

In the examples that follow, each entry is paired with its recorded inhibition.
smiles.entry: OC[C@@H]1[C@@H](O)[C@H](O)[C@H]2CC(F)(F)CN12
reading: 3.2%
//
smiles.entry: OC[C@@H]1[C@@H](O)[C@H](O)[C@H]2[C@@H](O)[C@@H](F)CN21
reading: 30.4%
//
smiles.entry: OC[C@@H]1[C@@H](O)[C@H](O)[C@H]2[C@H](O)C(F)(F)CN21
reading: 5.9%
//
smiles.entry: OC[C@@H]1[C@@H](O)[C@H](O)[C@H]2C[C@@H](F)CN12
reading: 42.3%
//
smiles.entry: OC[C@@H]1[C@@H](O)[C@H](O)[C@H]2[C@H](O)[C@@H](F)CN21
reading: 34.4%
//
smiles.entry: OC[C@@H]1[C@@H](O)[C@H](O)[C@H]2[C@@H](O)[C@H](F)CN21
reading: 30.4%

Give inhibition for all molecules that follow.
1. OC[C@@H]1[C@@H](O)[C@H](O)[C@H]2[C@@H](O)C(F)(F)CN21
2. OC[C@@H]1[C@@H](O)[C@H](O)[C@H]2C[C@H](F)CN12
3. OC[C@@H]1[C@@H](O)[C@H](O)[C@H]2[C@H](O)[C@H](F)CN21

-- reply
1. 9.2%
2. 23%
3. 15.6%

---

- Species: Rattus norvegicus
- experiment: Inhibition of rat intestinal maltase using maltose as substrate at 1000 uM at pH 6.8 by colorimetric method relative to control
- Assay type: tissue-based
- condition.info: Intestine
observation.type: inhibition (%)
One number for each entry, in %.

smiles.entry: OC[C@@H]1[C@@H](O)[C@H](O)[C@H]2[C@@H](O)[C@H](F)CN21
unit.annotation: %
inhibition: 41.7

smiles.entry: OC[C@@H]1[C@@H](O)[C@H](O)[C@H]2[C@H](O)[C@H](F)CN21
unit.annotation: %
inhibition: 33

smiles.entry: OC[C@@H]1[C@@H](O)[C@H](O)[C@H]2[C@@H](O)C(F)(F)CN21
unit.annotation: %
inhibition: 28.4

smiles.entry: OC[C@@H]1[C@@H](O)[C@H](O)[C@H]2CC(F)(F)CN12
unit.annotation: %
inhibition: 7.9

smiles.entry: OC[C@@H]1[C@@H](O)[C@H](O)[C@H]2C[C@H](F)CN12
unit.annotation: %
inhibition: 7.9

-- ask Looking for the measured inhibition of `OC[C@@H]1[C@@H](O)[C@H](O)[C@H]2C[C@@H](F)CN12` , can you help?
-- reply 30.9

---

- experiment: Inhibition of porcine kidney alpha/alpha-trehalase
- Format: tissue-based, Sus scrofa
Exercise: for every item that follows, state its recorded pIC50.
Numbers only, as −log10 of the molar value.

smiles.entry: OC[C@@H]1[C@@H](O)[C@H](O)[C@H]2[C@H](O)[C@@H](O)CN21
pIC50: 3.80

Here is the next item to consider.
-- ask Looking for the measured pIC50 of `OC[C@@H]1[C@@H](O)[C@H](O)[C@H]2[C@H](O)[C@H](O)CN21` , can you help?
-- reply 5.01

The measured values listed here are drawn from ChEMBL document CHEMBL5247629.
